experimental.target: hepatic lipase (HL) (Homo sapiens)
Construct: made in house; host or cells: COS cells (conditioned medium, partially purified)
Sequence (P11150 23-499, species assumed): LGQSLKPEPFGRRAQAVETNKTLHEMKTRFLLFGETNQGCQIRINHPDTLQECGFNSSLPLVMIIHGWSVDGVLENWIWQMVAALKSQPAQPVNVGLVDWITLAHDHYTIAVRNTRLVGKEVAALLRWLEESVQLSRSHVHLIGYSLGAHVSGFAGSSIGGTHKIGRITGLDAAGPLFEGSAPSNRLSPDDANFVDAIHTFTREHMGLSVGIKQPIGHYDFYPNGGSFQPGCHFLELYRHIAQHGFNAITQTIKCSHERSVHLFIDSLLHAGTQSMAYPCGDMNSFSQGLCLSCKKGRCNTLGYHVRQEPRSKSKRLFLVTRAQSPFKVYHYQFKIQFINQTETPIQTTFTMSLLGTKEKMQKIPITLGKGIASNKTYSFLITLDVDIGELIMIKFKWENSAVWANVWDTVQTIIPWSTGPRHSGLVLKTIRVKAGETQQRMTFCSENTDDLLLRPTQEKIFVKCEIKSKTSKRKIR
test.protocol: Hepatic lipase (HL) enzymatic assay, fluorescent substrate A10070 in DMPG vesicles
Type: biochemical
test.parameters: HL partially purified from conditioned media of COS cells; compound preincubated 30 min at 37° C; read-out: HL IC50
pIC50: −log10 of the molar value.
# label = Met if pIC50 >= 7 else Not met

{"compound": "NS(=O)(=O)NCc1nnc(C(c2nc3ccc(-c4ccc(F)c(Cl)c4)cc3s2)S(=O)(=O)Cc2ccccc2)o1 (stereo not shown)", "answer.label": "Met"}

Task: Textbook exercise: given the entry NS(=O)(=O)NCc1nnc(C(c2nc3ccc(-c4cc(Cl)cc(Cl)c4)cc3s2)S(=O)(=O)Cc2ccccc2)o1 (stereo not shown) , state whether its pIC50 is greater than or equal to 7.
Output: Met

Task: Determine whether measured pIC50 meets or exceeds 7 for COCc1ccc(-c2ccc3nc(C(c4nnc(CNS(N)(=O)=O)o4)S(=O)(=O)Cc4ccc(C(F)(F)F)cc4)sc3c2)cc1 (stereo not shown)
Output: Met

Task: Reported pIC50 reaches at least 7 for CC(O)CCNC(=O)Cc1nnc(C(c2nc3ccc(-c4ccc(C(=O)N5CCOCC5)cc4)cc3s2)S(=O)(=O)Cc2ccccc2)o1 (stereo not shown) ?
Output: Not met

Task: Decide: pIC50 of CC1(Cc2nnc(C(c3nc4ccc(-c5cccc(C(=O)N6CCC(O)CC6)c5)cc4s3)S(C)(=O)=O)o2)NC(=O)NC1=O (stereo not shown) >= 7?
Output: Not met

###

experimental.target: Endothelial lipase (EL) (Homo sapiens)
Construct: HT-1080 cells that were transformed using RAGE technology (Athersys) to overexpress endogenous EL; endogenous in cells; conditioned medium used
test.protocol: Endothelial lipase (EL) enzymatic assay, fluorescent substrate A10070 in DMPG vesicles
Type: biochemical
test.parameters: EL from conditioned media of HT-1080 cells; compound preincubated 30 min at 37° C; read-out: EL IC50
Description: Endothelial lipase (EL) and hepatic lipase (HL) activities were measured using a fluorescent substrate, A10070, (Invitrogen, CA) doped into an artificial vesicle containing DMPG (Avanti Polar Lipids) as the excipient. […] The enzymatic assay was measured using 384-well white Optiplates. […] The reaction rates were measured on a Gemini plate reader with an excitation wavelength of 490 nm and an emission wavelength of 530 nm. […]
Consider the following compounds; for each one, report its pIC50.
Numbers only, as −log10 of the molar value.

Solved entries (count: 4):
{"compound": "CC(O)CCNC(=O)Cc1nnc(C(c2nc3ccc(-c4ccc(C(=O)N5CCOCC5)cc4)cc3s2)S(=O)(=O)Cc2ccccc2)o1 (centres unmarked)", "measured.endpoint": "pIC50", "recorded.value": 7.85}
{"compound": "CC(C)NC(=O)c1cccc(-c2ccc3nc(C(c4nnc(CNS(N)(=O)=O)o4)S(C)(=O)=O)sc3c2)c1 (centres unmarked)", "measured.endpoint": "pIC50", "recorded.value": 8.10}
{"compound": "CC(C)(C)OC(=O)NS(=O)(=O)NCc1nnc(C(c2nc3ccc(-c4ccc(C(=O)N5CCOCC5)c(Cl)c4)cc3s2)S(=O)(=O)Cc2ccccc2)o1 (centres unmarked)", "measured.endpoint": "pIC50", "recorded.value": 7.77}
{"compound": "CC(C)(C)OC(=O)Cc1nnc(C(c2nc3ccc(-c4ccc(C(=O)N5CCOCC5)cc4)cc3s2)S(=O)(=O)Cc2ccccc2)o1 (centres unmarked)", "measured.endpoint": "pIC50", "recorded.value": 7.62}

Consider the following items and state reported pIC50 for each.
1. COC1(C)CN(C(=O)c2cccc(-c3ccc4nc(C(c5nnc(CC6(C)NC(=O)NC6=O)o5)S(C)(=O)=O)sc4c3)c2)C1 (centres unmarked)
2. CS(=O)(=O)C(c1nnc(CC2SC(=O)NC2=O)o1)c1nc2ccc(Br)cc2s1 (centres unmarked)

Output:
1: 8.10; 2: 7.11

###

experimental.target: Endothelial lipase (EL) (Homo sapiens, UniProt Q9Y5X9)
Construct: HT-1080 cells that were transformed using RAGE technology (Athersys) to overexpress endogenous EL; endogenous in cells; conditioned medium used
test.protocol: Endothelial lipase (EL) enzymatic assay, fluorescent substrate A10070 in DMPG vesicles
Type: biochemical
test.parameters: EL from conditioned media of HT-1080 cells; compound preincubated 30 min at 37° C; read-out: EL IC50
measured.endpoint: IC50

Observe how each entry below is paired with its result.
{"compound": "NS(=O)(=O)NCc1nnc(C(c2nc3ccc(-c4ccccc4)cc3s2)S(=O)(=O)CC2CCCCC2)o1 (stereo not drawn)", "experimental.target": "Endothelial lipase (EL) (Homo sapiens, UniProt Q9Y5X9)", "IC50": "< 10 nM"}
{"compound": "CS(=O)(=O)C(c1nnc(CS(N)(=O)=O)o1)c1nc2ccc(-c3ccccc3)cc2s1 (stereo not drawn)", "experimental.target": "Endothelial lipase (EL) (Homo sapiens, UniProt Q9Y5X9)", "IC50": "< 10 nM"}

For the next question, use this compound.
Quick note, IC50 for CC(C)Cn1cc(-c2cc(F)c3nc(C(c4nnc(CC5SC(=O)NC5=O)o4)S(=O)(=O)Cc4ccccc4)sc3c2)cn1 (stereo not drawn) landed at < 10 nM

###

experimental.target: Endothelial lipase (EL) (Homo sapiens, UniProt Q9Y5X9)
Construct: HT-1080 cells that were transformed using RAGE technology (Athersys) to overexpress endogenous EL; endogenous in cells; conditioned medium used
Sequence (Q9Y5X9 21-500): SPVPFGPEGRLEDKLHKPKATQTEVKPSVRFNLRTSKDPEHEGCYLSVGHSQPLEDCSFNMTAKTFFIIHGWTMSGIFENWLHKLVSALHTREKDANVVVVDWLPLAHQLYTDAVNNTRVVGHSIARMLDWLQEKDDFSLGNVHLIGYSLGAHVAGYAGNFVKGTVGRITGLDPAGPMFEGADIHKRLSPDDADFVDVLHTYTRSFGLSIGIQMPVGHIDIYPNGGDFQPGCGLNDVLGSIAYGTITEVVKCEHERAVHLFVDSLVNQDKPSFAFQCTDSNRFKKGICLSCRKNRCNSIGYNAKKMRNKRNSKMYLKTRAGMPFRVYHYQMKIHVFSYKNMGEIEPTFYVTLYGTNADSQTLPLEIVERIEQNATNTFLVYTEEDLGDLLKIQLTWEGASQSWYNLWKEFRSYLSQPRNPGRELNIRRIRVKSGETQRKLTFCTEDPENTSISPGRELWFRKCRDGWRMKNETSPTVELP
test.protocol: Endothelial lipase (EL) enzymatic assay, fluorescent substrate A10070 in DMPG vesicles
Assay type: biochemical
test.parameters: EL from conditioned media of HT-1080 cells; compound preincubated 30 min at 37° C; read-out: EL IC50
measured.endpoint: IC50 (nM)
Answers are plain numbers, in nM.

Use these answered entries as a reference point.
{"compound": "COCc1ccc(-c2ccc3nc(C(c4nnc(CNS(N)(=O)=O)o4)S(=O)(=O)Cc4ccc(OC(F)(F)F)cc4)sc3c2)cc1 (stereo not shown)", "experimental.target": "Endothelial lipase (EL) (Homo sapiens, UniProt Q9Y5X9)", "IC50 / nM": 1}
{"compound": "COCCS(=O)(=O)C(c1nnc(CC(=O)NC2CC2)o1)c1nc2ccc(-c3ccc(F)nc3)cc2s1 (stereo not shown)", "experimental.target": "Endothelial lipase (EL) (Homo sapiens, UniProt Q9Y5X9)", "IC50 / nM": 194}
{"compound": "CC1(Cc2nnc(C(c3nc4ccc(-c5ccnc(F)c5)cc4s3)S(C)(=O)=O)o2)NC(=O)NC1=O (single isomer, unassigned; isomer b) [Example 12]", "experimental.target": "Endothelial lipase (EL) (Homo sapiens, UniProt Q9Y5X9)", "IC50 / nM": 54}
{"compound": "CC1(Cc2nnc(C(c3nc4ccc(-c5ccc(F)nc5)cc4s3)S(=O)(=O)Cc3ccccc3)o2)NC(=O)NC1=O (single isomer, unassigned; isomer b) [Example 7]", "experimental.target": "Endothelial lipase (EL) (Homo sapiens, UniProt Q9Y5X9)", "IC50 / nM": 188}
{"compound": "CS(=O)(=O)C(c1nnc(C[C@H]2NS(=O)(=O)NC2=O)o1)c1nc2ccc(-c3ccc(C(=O)N4CCOCC4)cc3)cc2s1 (stereo partly shown)", "experimental.target": "Endothelial lipase (EL) (Homo sapiens, UniProt Q9Y5X9)", "IC50 / nM": 19}

Respectfully, I request IC50 for each entry included below.
1. NS(=O)(=O)NCc1nnc(C(c2nc3ccc(-c4cccc(C(=O)O)c4)cc3s2)S(=O)(=O)CCC(F)(F)F)o1 (stereo not shown)
2. COCc1ccc(-c2ccc3nc(C(c4nnc(CNS(N)(=O)=O)o4)S(=O)(=O)Cc4ccc(C(F)(F)F)cc4)sc3c2)cc1 (stereo not shown)
3. CS(=O)(=O)C(c1nnc(CNS(N)(=O)=O)o1)c1nc2ccc(-c3cccc(C(=O)NC4CCC4)c3)cc2s1 (stereo not shown)
4. Cc1noc(C)c1-c1ccc2nc(C(c3nnc(CNS(N)(=O)=O)o3)S(C)(=O)=O)sc2c1 (stereo not shown)

Output:
1. 15
2. 1
3. 3
4. 24

List IC50 for every entry below, keeping the order given.
1. CS(=O)(=O)C(c1nnc(CNS(N)(=O)=O)o1)c1nc2ccc(-c3cnn(CCN4CCOCC4)c3)cc2s1 (stereo not shown)
2. CC1(Cc2nnc(C(c3nc4ccc(-c5cccc(C(=O)N6CC[C@H](O)C6)c5)cc4s3)S(C)(=O)=O)o2)NC(=O)NC1=O (stereo partly shown)
3. CC(C)(C)CNC(=O)c1cccc(-c2ccc3nc(C(c4nnc(CNS(N)(=O)=O)o4)S(C)(=O)=O)sc3c2)c1 (stereo not shown)
4. CN(C)C(=O)Cc1nnc(C(c2nc3ccc(-c4ccccc4)cc3s2)S(=O)(=O)Cc2ccccc2)o1 (stereo not shown)

Output:
1: 32; 2: 22; 3: 3; 4: 190
